// values below are reported cAMP EC50 (FBS and BSA present)
Target: T1, human GIP receptor (human), P48546
T1 chain: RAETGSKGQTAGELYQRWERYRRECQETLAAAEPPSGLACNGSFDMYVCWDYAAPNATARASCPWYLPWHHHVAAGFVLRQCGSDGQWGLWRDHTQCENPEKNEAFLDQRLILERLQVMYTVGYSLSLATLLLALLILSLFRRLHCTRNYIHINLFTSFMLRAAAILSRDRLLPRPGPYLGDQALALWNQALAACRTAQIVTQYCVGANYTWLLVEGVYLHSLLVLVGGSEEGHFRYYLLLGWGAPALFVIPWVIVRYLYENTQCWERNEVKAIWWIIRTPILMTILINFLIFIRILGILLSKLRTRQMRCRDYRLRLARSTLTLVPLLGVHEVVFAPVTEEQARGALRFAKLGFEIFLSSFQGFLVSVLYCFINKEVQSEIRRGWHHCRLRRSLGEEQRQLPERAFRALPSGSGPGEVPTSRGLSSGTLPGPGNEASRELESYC
Assay: cell-based or functional assay
*1 amine or outer side, *2 acyl side, *3 side chain or, on linkers, in order; H or OH if unused. Where no end group is shown, it is not given here. Side-chain parts run from the residue outwards. [ ]: non-standard residue; d: D form. The star is where a group is joined. C20 diacid = O=C(O)CCCCCCCCCCCCCCCCCCC(=O)*; γGlu = O=C(O)[C@H](CCC(=O)[*:2])N[*:1]; αMeL = CC(C)C[C@](C)(N)C(=O)O; AEEA = NCCOCCOCC(=O)O; Aib = CC(C)(N)C(=O)O
experimentalReadout: cAMP EC50 (FBS and BSA present) (nM)

[[record]]
binder = "Y[Aib]QGTFTSDYSI[αMeL]LDKK([AEEA-AEEA-γGlu-C20 diacid])AQHAFIEYLLEGGPSSGAPPPS-NH2 [Example 7]"
numericvalue = 4.38

[[record]]
binder = "Y[Aib]QGTFTSDYSI[αMeL]LDKK([AEEA-γGlu-C20 diacid])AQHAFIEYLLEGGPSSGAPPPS-NH2 [Example 10]"
numericvalue = 4.3

[[record]]
binder = "Y[Aib]QGTFTSDYSILLDKK([AEEA-γGlu-C20 diacid])AQ[Aib]AFIEYLLEGGPSSGAPPPS-NH2 [Example 18]"
numericvalue = 5.89

